# assay system: CHO-CHOP luciferase reporter, UPR activation, luminescence
# assay comment: CHOP reporter induction, apoptotic UPR branch – CHO-CHOP cells, luciferase luminescence, confirmation (AID 489024);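 also: compounds added alone to reporter cells with no tunicamycin stress co-treatment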
Active and inactive are the calls of the source.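 The calls were made as follows: active = compounds whose mean EC50, the dose giving half the maximal reporter activation, is at or below a set limit; inactive = the rest.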
Outcomes: T for active, F for inactive

[
  {
    "compound": "CC(C)c1ccc(NC(=O)/C(C#N)=C/c2ccncc2)cc1",
    "category label": "T"
  },
  {
    "compound": "CC(C)c1ccc(/C=C(\\c2nc3ccccc3[nH]2)S(=O)(=O)c2ccccc2)cc1",
    "category label": "T"
  },
  {
    "compound": "Cc1ccc(-c2cc(NC(=O)CCl)n(-c3ccccc3)n2)cc1",
    "category label": "T"
  },
  {
    "compound": "COc1ccc(C(=O)NCC(=O)N/N=C/c2ccc([N+](=O)[O-])o2)cc1OC",
    "category label": "F"
  },
  {
    "compound": "CC(C)c1ccc(N2C(=O)CC(Sc3nc4ccccc4o3)C2=O)cc1 (stereo not drawn)",
    "category label": "T"
  },
  {
    "compound": "CCc1ccc(-n2c(SCC(=O)c3ccc4c(c3)NC(=O)CO4)nc3ccccc3c2=O)cc1",
    "category label": "T"
  },
  {
    "compound": "Cc1noc2ncnc(Sc3ccc(Cl)cc3)c12",
    "category label": "T"
  },
  {
    "compound": "COCCN1CSC(=S)N(Cc2ccco2)C1",
    "category label": "F"
  },
  {
    "compound": "Cc1cc(C(=O)CCl)c(C)n1-c1cccc([N+](=O)[O-])c1",
    "category label": "T"
  },
  {
    "compound": "CCOc1ccc(-c2nnc(SCC(=O)Nc3ccc4c(c3)c3ccccc3n4CC)n2N)cc1",
    "category label": "T"
  },
  {
    "compound": "Oc1ccc(-c2csc(-c3ccccc3)n2)cc1O",
    "category label": "T"
  },
  {
    "compound": "O=C(N/N=C/c1ccccn1)c1cc(-c2ccccc2)nc2ccccc12",
    "category label": "T"
  },
  {
    "compound": "O=C(COc1ccc2ccccc2c1)N1CCN(Cc2c[nH]c3ccccc23)CC1",
    "category label": "T"
  },
  {
    "compound": "Cn1cc(/C=C2\\SC(=O)NC2=S)c2ccccc21",
    "category label": "F"
  },
  {
    "compound": "CCc1ccc2nc(N(CCCN(C)C)C(=O)c3ccc(S(=O)(=O)N(C)C4CCCCC4)cc3)sc2c1",
    "category label": "T"
  },
  {
    "compound": "Cc1ccc(NC(=O)c2ccc(N/N=C/c3cccc(O)c3)c([N+](=O)[O-])c2)cc1",
    "category label": "T"
  },
  {
    "compound": "O=C(NCCc1ccccc1)c1coc(=O)c(Br)c1",
    "category label": "T"
  },
  {
    "compound": "CCOC(=O)c1c(-c2ccc(-c3ccccc3)cc2)csc1NC(=O)CNCCN(C)C",
    "category label": "T"
  },
  {
    "compound": "CC(C)c1ccc(N2C(=O)NC(=O)/C(=C\\C=C\\c3ccco3)C2=O)cc1",
    "category label": "T"
  },
  {
    "compound": "CC(C)N1C/C(=C/c2ccsc2)C(=O)/C(=C/c2ccsc2)C1",
    "category label": "T"
  },
  {
    "compound": "Cc1cccc(-n2c(/C=C/c3ccc([N+](=O)[O-])o3)nc3ccccc3c2=O)c1",
    "category label": "T"
  },
  {
    "compound": "Cc1ccc(Nc2nc(-c3ccc(O)c(O)c3)cs2)nc1",
    "category label": "T"
  },
  {
    "compound": "O=C(/C(=C/c1ccc(Cl)cc1)c1nc2ccccc2[nH]1)c1cccs1",
    "category label": "T"
  },
  {
    "compound": "O=[N+]([O-])c1ccc(C=Nc2ccc(Cl)cc2Cl)s1",
    "category label": "T"
  },
  {
    "compound": "CC1(C)CC(=O)C2=C(C1)Oc1nc3ccccc3cc1C2C(C#N)C#N (stereo not drawn)",
    "category label": "F"
  },
  {
    "compound": "COc1cc(OC)cc(C(=O)NC(=S)Nc2cc3oc4ccccc4c3cc2OC)c1",
    "category label": "F"
  },
  {
    "compound": "CC(C)(C)C1=CC(=O)C(=O)C(C(C)(C)C)=C1",
    "category label": "T"
  },
  {
    "compound": "CCOC(=O)C(=CNc1nc(-c2ccccc2)c(C(=O)Nc2ccc(-c3ccccc3)cc2)s1)C(=O)OCC",
    "category label": "F"
  },
  {
    "compound": "Cc1ccc(S/C=C\\C(=O)c2ccccc2)cc1",
    "category label": "F"
  },
  {
    "compound": "O=C(Nc1ccc(Cl)cc1)/C(=C/c1cccc(O)c1)c1nc2ccccc2s1",
    "category label": "F"
  },
  {
    "compound": "COc1ccc(N=c2oc3c(OC)cccc3cc2C(=O)NCc2ccco2)cc1OC",
    "category label": "F"
  },
  {
    "compound": "CCOc1cc(/C=C2/C(=O)ON=C2C)ccc1OCc1ccccc1F",
    "category label": "T"
  },
  {
    "compound": "CCOC(=O)C1=C(CCl)NC(=O)NC1c1ccc2c(c1)OCO2 (stereo not drawn)",
    "category label": "F"
  },
  {
    "compound": "O=C(/C(=C\\c1ccccc1)c1nc2ccccc2[nH]1)c1ccc(Cl)cc1",
    "category label": "T"
  },
  {
    "compound": "O=C(C#Cc1ccccc1)c1cccc([N+](=O)[O-])c1",
    "category label": "T"
  },
  {
    "compound": "CC1=CC(C)(C)Nc2ccc(OC(=O)CN3C(=O)C4CCCCC4C3=O)cc21 (stereo not drawn)",
    "category label": "T"
  },
  {
    "compound": "O=C(/C=C/c1cccnc1)c1ccc(NC(=O)c2cccc(Br)c2)cc1",
    "category label": "F"
  },
  {
    "compound": "O=C(/C=C1\\NC2(CCCC2)Cc2ccccc21)C(=O)N/N=C/c1ccc(O)c(O)c1",
    "category label": "T"
  },
  {
    "compound": "Cc1cccc(C)c1NC(=O)C(Cl)C(=O)c1ccccc1 (stereo not drawn)",
    "category label": "T"
  },
  {
    "compound": "O=C(Oc1oc(-c2ccco2)nc1C=Nc1ccc(Cl)cc1)c1ccco1",
    "category label": "T"
  },
  {
    "compound": "O=C(Oc1c(CN2CCOCC2)cc(Cl)c2cccnc12)c1ccccc1F",
    "category label": "T"
  },
  {
    "compound": "CNC[C@@H](Cc1ccccc1)NC[C@@H](CC1CCCCC1)NCCCc1ccccc1",
    "category label": "T"
  },
  {
    "compound": "O=C(Nc1cccc(-c2nc3cccnc3s2)c1)C1c2ccccc2Oc2ccccc21",
    "category label": "T"
  }
]

---

# assay system: CHO-CHOP luciferase reporter, UPR activation, luminescence
# assay comment: CHOP reporter induction, apoptotic UPR branch – CHO-CHOP cells, luciferase luminescence, confirmation (AID 489024);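 also: compounds added alone to reporter cells with no tunicamycin stress co-treatment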
Activity calls are given as the source filed them.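 Rule for the calls: active = compounds whose mean EC50, the dose giving half the maximal reporter activation, is at or below a set limit; inactive = the rest.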
Outcomes: active, inactive

[
  {
    "molecule": "CC1CCC/C=C/C(=O)c2c(O)cc(O)cc2CC(=O)O1 (configuration not stated)",
    "assay system": "CHO-CHOP luciferase reporter, UPR activation, luminescence",
    "category label": "inactive"
  },
  {
    "molecule": "N#C/C(=C\\c1ccc([N+](=O)[O-])o1)C(=O)Nc1ccc(F)cc1",
    "assay system": "CHO-CHOP luciferase reporter, UPR activation, luminescence",
    "category label": "active"
  },
  {
    "molecule": "CC(=O)N(\\C=C/C=C/C=C1\\Sc2ccccc2C1=O)c1ccccc1",
    "assay system": "CHO-CHOP luciferase reporter, UPR activation, luminescence",
    "category label": "inactive"
  },
  {
    "molecule": "CCCN1Cc2cccc(C(=O)Nc3ccc(-c4nc5ccccc5[nH]4)cc3)c2C1=O",
    "assay system": "CHO-CHOP luciferase reporter, UPR activation, luminescence",
    "category label": "inactive"
  },
  {
    "molecule": "CC(C)N1CSC(=S)N(Cc2ccccc2)C1",
    "assay system": "CHO-CHOP luciferase reporter, UPR activation, luminescence",
    "category label": "active"
  },
  {
    "molecule": "CCOC(=O)c1cc(-c2ccc(/C=C3/C(=O)N(c4ccc(C(=O)O)cc4)N=C3C)o2)ccc1Cl",
    "assay system": "CHO-CHOP luciferase reporter, UPR activation, luminescence",
    "category label": "active"
  },
  {
    "molecule": "CCOc1cc(C=C(C(=O)OC)C(=O)OC)ccc1OCc1ccc([N+](=O)[O-])cc1",
    "assay system": "CHO-CHOP luciferase reporter, UPR activation, luminescence",
    "category label": "active"
  },
  {
    "molecule": "Oc1ccc(CN2CCN(Cc3ccccc3)CC2)c2cccnc12",
    "assay system": "CHO-CHOP luciferase reporter, UPR activation, luminescence",
    "category label": "inactive"
  },
  {
    "molecule": "Cc1ccc(S(=O)(=O)Nc2cccc3cccnc23)c([N+](=O)[O-])c1",
    "assay system": "CHO-CHOP luciferase reporter, UPR activation, luminescence",
    "category label": "active"
  },
  {
    "molecule": "Cc1c(NC(=O)CSc2cccc3cccnc23)c(=O)n(-c2ccccc2)n1C",
    "assay system": "CHO-CHOP luciferase reporter, UPR activation, luminescence",
    "category label": "active"
  },
  {
    "molecule": "C/C(=N\\NC(=O)c1cc2ccccc2cc1O)c1ccccn1",
    "assay system": "CHO-CHOP luciferase reporter, UPR activation, luminescence",
    "category label": "active"
  },
  {
    "molecule": "O=[N+]([O-])c1ccc2nc(Cl)nc(-c3ccccc3)c2c1",
    "assay system": "CHO-CHOP luciferase reporter, UPR activation, luminescence",
    "category label": "active"
  },
  {
    "molecule": "CCn1c(O)c(C2=c3ccccc3=NC2=O)c2cc(Br)ccc21",
    "assay system": "CHO-CHOP luciferase reporter, UPR activation, luminescence",
    "category label": "active"
  },
  {
    "molecule": "CN(C)S(=O)(=O)c1cccc(NC(=O)CSc2cccc3cccnc23)c1",
    "assay system": "CHO-CHOP luciferase reporter, UPR activation, luminescence",
    "category label": "active"
  },
  {
    "molecule": "CCCCCC(=O)Nc1ccc(C(=O)N/N=C/c2ccc([N+](=O)[O-])cc2)cc1",
    "assay system": "CHO-CHOP luciferase reporter, UPR activation, luminescence",
    "category label": "inactive"
  },
  {
    "molecule": "O=C1NC(=S)NC(=O)C1=Cc1ccc(Br)s1",
    "assay system": "CHO-CHOP luciferase reporter, UPR activation, luminescence",
    "category label": "inactive"
  },
  {
    "molecule": "C/C(=N\\NC(=O)C(C)Oc1ccc([N+](=O)[O-])cc1)c1ccccn1 (configuration not stated)",
    "assay system": "CHO-CHOP luciferase reporter, UPR activation, luminescence",
    "category label": "active"
  },
  {
    "molecule": "O=C(/C=C/c1ccc([N+](=O)[O-])cc1)/C=C/c1ccco1",
    "assay system": "CHO-CHOP luciferase reporter, UPR activation, luminescence",
    "category label": "active"
  },
  {
    "molecule": "COc1cc(NC(=O)c2cncc(-c3ccc(C#N)cc3)c2)cc(C(=O)Nc2cccc(C(F)(F)F)c2)c1",
    "assay system": "CHO-CHOP luciferase reporter, UPR activation, luminescence",
    "category label": "inactive"
  },
  {
    "molecule": "COC(=O)c1ccc(C(=O)OC)c(NC(=O)CSc2cccc[n+]2[O-])c1",
    "assay system": "CHO-CHOP luciferase reporter, UPR activation, luminescence",
    "category label": "inactive"
  },
  {
    "molecule": "Cc1cc(C)n(-c2nc(NC(C)(C)C)nc(NC(C)(C)C)n2)n1",
    "assay system": "CHO-CHOP luciferase reporter, UPR activation, luminescence",
    "category label": "inactive"
  },
  {
    "molecule": "COc1cccc(N=Nc2ccc(O)c3ncccc23)c1",
    "assay system": "CHO-CHOP luciferase reporter, UPR activation, luminescence",
    "category label": "active"
  }
]
